Test system: Thyroid gland
Procedure details: Biodistribution in ICR mouse thyroid at 5 to 10 uCi, iv after 30 mins
Assay type: ADME, organism-based
Run conditions: in vivo, 0.5 h
Quantity name: Drug uptake (% ID/g)

>  <Chemical string>
CNc1ccc(/C=C/c2cnc(OCCO)c([125I])c2)cc1

>  <Measurement target>
Thyroid gland

>  <Endpoint result>
17.2

$$$$

[1] CNc1ccc(/C=C/c2cnc(OCCOCCOCCF)c([125I])c2)cc1
[2] CN(C)c1ccc(/C=C/c2cnc(OCCO)c([125I])c2)cc1
[3] CN(C)c1ccc(/C=C/c2cnc(OCCOCCOCCF)c([125I])c2)cc1
[4] OCCOc1ncc(/C=C/c2ccc(O)cc2)cc1[125I]
Q) Sort low-to-high on Drug uptake, please. I'd appreciate it if you listed the labels in the requested order.
A) 4, 2, 3, 1
